Target: Cytochrome P450 2D6 (Homo sapiens) (UniProt P10635)
Sequence (P10635 whole entry, looked up): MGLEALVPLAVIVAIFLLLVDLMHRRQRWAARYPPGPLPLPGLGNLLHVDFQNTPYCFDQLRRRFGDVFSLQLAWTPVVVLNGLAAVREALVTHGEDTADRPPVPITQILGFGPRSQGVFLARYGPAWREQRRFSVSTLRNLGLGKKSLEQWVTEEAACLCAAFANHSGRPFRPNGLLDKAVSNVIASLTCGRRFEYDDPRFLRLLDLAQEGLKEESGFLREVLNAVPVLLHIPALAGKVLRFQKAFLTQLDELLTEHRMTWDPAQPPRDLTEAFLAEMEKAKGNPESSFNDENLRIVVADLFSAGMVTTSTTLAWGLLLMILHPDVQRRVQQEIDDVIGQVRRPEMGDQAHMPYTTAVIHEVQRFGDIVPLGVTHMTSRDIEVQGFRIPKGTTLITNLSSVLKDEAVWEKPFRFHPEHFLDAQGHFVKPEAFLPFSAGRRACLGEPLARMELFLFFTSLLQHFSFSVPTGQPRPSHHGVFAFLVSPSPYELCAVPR
Test: Cytochrome panel assay with activity outcomes
Conditions: recombinant CYP, pro-luciferin dealkylation, luminescence, p450-cyp2d6; series mostly up to 57.1 µM
The whole screen tested about 16,000 compounds, of which about 2,600 (16%) were called active. Another 20% or so got no clear call; they are omitted. The call rests on the fitted dose curve; in most records, active means well fitted curve in the direction sought with a large enough effect; inconclusive means small, poorly fitted or top-dose-only effect, or effect the other way; inactive means no such curve, though single readings can be large or run the other way. Only a sample is shown.
Outcomes: active, inactive

> print(dat)
                                    compound  assignedlabel
 1                  CC(C)Oc1ccc(CSC(=N)N)cc1         active
 2  CCOCC(=O)Nc1cc(C(=O)Nc2cccc(C)c2C)ccc1Cl       inactive
 3  CC1=C(CC(=O)O)c2cc(F)ccc2/C1=C\c1ccc(S(C)=O)cc1 (centres undefined)       inactive
 4  COc1ccc(/C=N/NC(=O)c2sccc2OCc2ccc(F)cc2)cc1OC       inactive
 5  COC(=O)c1ccc(Oc2cc(C)nc(-n3nc(C)cc3C)n2)cc1       inactive
 6       CC(C)C(=O)Nc1ccc(NC(=O)c2cccnc2)cn1       inactive
 7  O=[N+]([O-])c1cc(F)c(N2CCOCC2)cc1N1CCCCC1         active
 8  COc1ccc(/C=N/NC(=O)c2ccccc2)cc1CN1CCN(c2ccc(F)cc2)CC1         active
 9                N#C/C(=C/N1CCOCC1)c1ccccc1       inactive
10  CCN1C(=O)/C(=C2\SC(=S)N(CCCOC)C2=O)c2ccccc21       inactive
11  Oc1c(CN2CCOCC2)cc(-c2ccccc2)cc1CN1CCOCC1         active
12       O=C(Nc1ccc(F)cc1)c1ccc(-n2ccnc2)nc1         active
13   COc1ccc(/C=C/C(=O)Nc2nc(C)cc(C)n2)cc1OC       inactive
14  CN1CCc2c(c3c(n2C)CCN(C)[C@H]3c2ccccc2F)[C@@H]1c1ccccc1F       inactive
15            CCc1nnc(SCc2ccc(OC(C)C)cc2)n1N       inactive
16  c1ccc(-c2csc(Nc3nc(N4CCOCC4)nc(N4CCOCC4)n3)n2)cc1       inactive
17              O=[N+]([O-])c1cccnc1N1CCOCC1       inactive
18  CCc1cc2c(=O)c(-c3cnn(-c4ccccc4)c3)coc2c(CN2CCOCC2)c1O       inactive
19  C/C(CC(=O)Nc1ccccn1)=N\NC(=O)C(=O)Nc1cccc(Cl)c1C       inactive
